The reported measurements were obtained from patent US20150087577A1.

- ASSAY_SYSTEM: human CXCR4 (human, UniProt P61073 1-352)
- Sequence (P61073 whole entry): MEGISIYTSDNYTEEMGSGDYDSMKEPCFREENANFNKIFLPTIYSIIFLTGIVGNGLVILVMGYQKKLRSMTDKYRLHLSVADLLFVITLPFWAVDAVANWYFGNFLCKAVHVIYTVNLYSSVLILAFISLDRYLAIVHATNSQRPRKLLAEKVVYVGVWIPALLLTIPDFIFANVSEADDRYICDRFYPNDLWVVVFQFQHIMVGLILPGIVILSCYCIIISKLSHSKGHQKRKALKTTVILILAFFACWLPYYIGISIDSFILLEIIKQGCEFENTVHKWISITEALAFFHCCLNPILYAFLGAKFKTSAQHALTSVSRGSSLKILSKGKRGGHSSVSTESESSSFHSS
- TEST_DETAILS: cell-based or functional assay
Bridges are numbered along the chain shown (N, C = ends). [ ]: non-standard residue; d: D form. 2Nal = N[C@@H](Cc1ccc2ccccc2c1)C(=O)O; Cit = NC(=O)NCCC[C@H](N)C(=O)O
Reported IC50 (nM) Ca2+ assay (method 2) values are given for each entry in this list.
Please answer in the form of a number followed by its unit of measurement.

1. cyclo(YHTCRG[dP]RHWCYQK[dP]P) (disulfide 4-11; SMILES C[C@@H](O)[C@@H]1NC(=O)[C@H](Cc2c[nH]cn2)NC(=O)[C@H](Cc2ccc(O)cc2)NC(=O)[C@@H]2CCCN2C(=O)[C@H]2CCCN2C(=O)[C@H](CCCCN)NC(=O)[C@H](CCC(N)=O)NC(=O)[C@H](Cc2ccc(O)cc2)NC(=O)[C@@H]2CSSC[C@H](NC1=O)C(=O)N[C@@H](CCCNC(=N)N)C(=O)NCC(=O)N1CCC[C@@H]1C(=O)N[C@@H](CCCNC(=N)N)C(=O)N[C@@H](Cc1c[nH]cn1)C(=O)N[C@@H](Cc1c[nH]c3ccccc13)C(=O)N2) [Example 120] ... 8.1 nM

Now for another entry.
Qu. Entry under review: cyclo(YR[Cit]CSG[dP]RR[2Nal]CYQK[dP]P) (disulfide 4-11; SMILES N=C(N)NCCC[C@@H]1NC(=O)[C@H](CCCNC(=N)N)NC(=O)[C@H]2CCCN2C(=O)CNC(=O)[C@H](CO)NC(=O)[C@@H]2CSSC[C@H](NC(=O)[C@H](Cc3ccc4ccccc4c3)NC1=O)C(=O)N[C@@H](Cc1ccc(O)cc1)C(=O)N[C@@H](CCC(N)=O)C(=O)N[C@@H](CCCCN)C(=O)N1CCC[C@@H]1C(=O)N1CCC[C@H]1C(=O)N[C@@H](Cc1ccc(O)cc1)C(=O)N[C@@H](CCCNC(=N)N)C(=O)N[C@@H](CCCNC(N)=O)C(=O)N2) [Example 101] . Reported IC50 (nM) Ca2+ assay (method 2)?
Ans. 1.28 nM
